molecular target: Sodium-dependent serotonin transporter (Homo sapiens, UniProt P31645); experiment: Displacement of [125I]RTI55 from SERT
Sequence (P31645 whole entry): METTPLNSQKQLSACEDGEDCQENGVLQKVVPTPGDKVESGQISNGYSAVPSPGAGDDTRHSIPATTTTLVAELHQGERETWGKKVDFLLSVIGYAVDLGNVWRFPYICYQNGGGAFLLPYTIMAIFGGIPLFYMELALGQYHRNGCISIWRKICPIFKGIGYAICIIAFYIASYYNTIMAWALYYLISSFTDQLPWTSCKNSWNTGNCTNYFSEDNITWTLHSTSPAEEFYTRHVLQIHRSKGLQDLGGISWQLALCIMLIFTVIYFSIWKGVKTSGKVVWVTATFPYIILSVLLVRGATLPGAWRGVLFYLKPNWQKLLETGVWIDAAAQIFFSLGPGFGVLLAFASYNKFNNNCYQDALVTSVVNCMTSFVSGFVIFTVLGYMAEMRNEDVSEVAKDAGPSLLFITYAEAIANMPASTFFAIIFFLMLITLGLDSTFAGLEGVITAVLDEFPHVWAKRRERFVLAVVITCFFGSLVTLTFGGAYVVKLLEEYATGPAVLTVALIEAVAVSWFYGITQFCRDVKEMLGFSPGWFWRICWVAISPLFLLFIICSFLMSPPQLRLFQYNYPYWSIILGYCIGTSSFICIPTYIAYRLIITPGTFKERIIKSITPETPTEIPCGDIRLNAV
property_name: Ki (nM)
Respond numerically; units are nM and should not be typed.

QUERY: Please look at this molecule and report its Ki: CC(Cc1ccccc1)CN1CCN(CCOC(c2ccc(F)cc2)c2ccc(F)cc2)CC1 (stereo in doubt; (+)-7)
RESULT: 120

QUERY: Please look at this molecule and report its Ki: "O=C(Cc1ccccc1)CN1CCN(CCOC(c2ccccc2)c2ccccc2)CC1"
RESULT: 2500

QUERY: Please look at this molecule and report its Ki: CC(O)(Cc1ccccc1)CN1CCN(CCOC(c2ccc(F)cc2)c2ccc(F)cc2)CC1 (centres undefined)
RESULT: 310

QUERY: Please look at this molecule and report its Ki: "Fc1ccc(C(OCCN2CCN(C[C@H](F)Cc3ccccc3)CC2)c2ccc(F)cc2)cc1"
RESULT: 540

QUERY: Please look at this molecule and report its Ki: "FC[C@H](Cc1ccccc1)N1CCN(CCOC(c2ccc(F)cc2)c2ccc(F)cc2)CC1"
RESULT: 110

QUERY: Please look at this molecule and report its Ki: "O[C@@H](Cc1ccccc1)CN1CCN(CCOC(c2ccc(F)cc2)c2ccc(F)cc2)CC1"
RESULT: 230

QUERY: Please look at this molecule and report its Ki: "O[C@H](Cc1ccccc1)CN1CCN(CCOC(c2ccc(F)cc2)c2ccc(F)cc2)CC1"
RESULT: 160

QUERY: Please look at this molecule and report its Ki: "FC[C@@H](Cc1ccccc1)N1CCN(CCOC(c2ccc(F)cc2)c2ccc(F)cc2)CC1"
RESULT: 190

QUERY: Please look at this molecule and report its Ki: "N[C@@H](Cc1ccccc1)CN1CCN(CCOC(c2ccc(F)cc2)c2ccc(F)cc2)CC1"
RESULT: 88

QUERY: Please look at this molecule and report its Ki: "Fc1ccc(C(OCCN2CCN(C[C@@H](F)Cc3ccccc3)CC2)c2ccc(F)cc2)cc1"
RESULT: 290

QUERY: Please look at this molecule and report its Ki: "C=C(CCN1CCN(CCOC(c2ccc(F)cc2)c2ccc(F)cc2)CC1)c1ccccc1"
RESULT: 190

QUERY: Please look at this molecule and report its Ki: "Fc1ccc(C(OCCN2CCN(CCc3ccccc3)CC2)c2ccc(F)cc2)cc1"
RESULT: 36

QUERY: Please look at this molecule and report its Ki: CC(O)(CCN1CCN(CCOC(c2ccccc2)c2ccccc2)CC1)c1ccccc1 (centres undefined)
RESULT: 1800

QUERY: Please look at this molecule and report its Ki: "O=C(CN1CCN(CCOC(c2ccccc2)c2ccccc2)CC1)c1ccccc1"
RESULT: 1400

QUERY: Please look at this molecule and report its Ki: "C=C(Cc1ccccc1)CN1CCN(CCOC(c2ccccc2)c2ccccc2)CC1"
RESULT: 3300

QUERY: Please look at this molecule and report its Ki: "N[C@H](Cc1ccccc1)CN1CCN(CCOC(c2ccc(F)cc2)c2ccc(F)cc2)CC1"
RESULT: 22

QUERY: Please look at this molecule and report its Ki: "O=C(Cc1ccccc1)CN1CCN(CCOC(c2ccc(F)cc2)c2ccc(F)cc2)CC1"
RESULT: 250

QUERY: Please look at this molecule and report its Ki: CC(O)(CCN1CCN(CCOC(c2ccc(F)cc2)c2ccc(F)cc2)CC1)c1ccccc1 (centres undefined)
RESULT: 150

QUERY: Please look at this molecule and report its Ki: "O[C@@H](Cc1ccccc1)CN1CCN(CCOC(c2ccccc2)c2ccccc2)CC1"
RESULT: 2200

Values from ChEMBL document CHEMBL1149914
